experiment: CCTE_Harrill_HTTr_Viability_MCF7: CCTE's 6-hour Cell Viability Assessment for the High-Throughput Transcriptomics (HTTr) Platform, in MCF-7 cells cultured in DMEM + 10% fetal bovine serum, Harrill Lab (AID 2284010)
Active and inactive are the calls of the source. Rule for the calls: active = hit-call score of the fitted dose curve at least 0.9, where 1 is the maximum; inactive = score below 0.9.
The reply should be one of these categories: true (1) = active, false (0) = inactive

Hello, I am checking results. What call was entered for CC(O)CCO (stereo not drawn) ?
false (0)

Recorded call for CS(=O)(=O)NC(=O)c1cc(Oc2ccc(C(F)(F)F)cc2Cl)ccc1[N+](=O)[O-] ?
false (0)

Tell me the assay call for COc1cc(C=O)cc2c1[C@H](COC(N)=O)[C@]1(OC(C)=O)ON2C[C@H]2[C@@H]1N2C(C)=O please.
false (0)

Returns: the outcome recorded for CC(C)(C)OOC(C)(C)CCC(C)(C)OOC(C)(C)C in this assay.
false (0)

// outcome(item) with item = CC(C)N(Cc1ccccc1)C(=O)C(C)(C)C
false (0)

Further cases:
Please share the test call associated with O=[N+]([O-])C(Br)(CO)CO .
false (0)

Short answer needed: outcome of this test for [O-][Cl+]O ?
false (0)

# lookup: test call for Nc1ccc(N=Nc2ccccc2)cc1
false (0)

Which outcome was assigned to CN(C)c1ccccc1 in this test?
false (0)

So what was the verdict on CCCCCCCCn1sccc1=O in this test?
false (0)

# fetch the recorded call for CC(C)(C)C(O)(CCc1ccc(Cl)cc1)Cn1cncn1 (stereo not drawn) here
false (0)

# lookup: test call for CCC[CH2][Sn]([Cl])([CH2]CCC)[CH2]CCC
true (1)

What did this assay record as the result for OCCCl ?
false (0)

What did the test return for OCCOCCO ?
false (0)
